Assay: Half life in Sprague-Dawley rat plasma at 5 mg/kg, iv after 24 hrs
Format: ADME, organism-based
Parameters: dose 5 mg/kg, route intravenous
observable: half-life (h)
Record the value in h, omitting the unit from your answer.

For Cc1oc(-c2ccccc2)nc1CCCc1ccc(C[C@@H](C(=O)O)n2cccc2)cc1 the molecule record lists half-life as 8.4

###

Peroxisome proliferator-activated receptor alpha (Homo sapiens): recorded pEC50 for assorted compounds
In textbook form, pEC50 equals minus log to base ten of the concentration in mol/L.

Cc1oc(-c2ccccc2)nc1CN(C)Cc1ccc(C[C@@H](C(=O)O)n2cccc2)cc1
4.92
Cc1oc(-c2ccccc2)nc1CC#Cc1ccc(CC(C(=O)O)c2cccnc2)cc1 (racemic)
4.80
Cc1oc(-c2ccccc2)nc1CC#Cc1ccc(CC(C(=O)O)c2cccc(-c3ccccc3)c2)cc1 (racemic)
5.55
CN(C/C=C/c1ccc(C[C@@H](C(=O)O)n2cccc2)cc1)c1ccccn1
4.54

Consider now this further compound.
pEC50 measured on Cc1oc(-c2ccccc2)nc1CC#Cc1ccc(CC(C(=O)O)c2ccc(-c3ccccc3)cc2)cc1 (racemic) = 5.40

###

List of EC50 tested on Peroxisome proliferator-activated receptor alpha (Homo sapiens, UniProt Q07869).
Sequence (Q07869 whole entry): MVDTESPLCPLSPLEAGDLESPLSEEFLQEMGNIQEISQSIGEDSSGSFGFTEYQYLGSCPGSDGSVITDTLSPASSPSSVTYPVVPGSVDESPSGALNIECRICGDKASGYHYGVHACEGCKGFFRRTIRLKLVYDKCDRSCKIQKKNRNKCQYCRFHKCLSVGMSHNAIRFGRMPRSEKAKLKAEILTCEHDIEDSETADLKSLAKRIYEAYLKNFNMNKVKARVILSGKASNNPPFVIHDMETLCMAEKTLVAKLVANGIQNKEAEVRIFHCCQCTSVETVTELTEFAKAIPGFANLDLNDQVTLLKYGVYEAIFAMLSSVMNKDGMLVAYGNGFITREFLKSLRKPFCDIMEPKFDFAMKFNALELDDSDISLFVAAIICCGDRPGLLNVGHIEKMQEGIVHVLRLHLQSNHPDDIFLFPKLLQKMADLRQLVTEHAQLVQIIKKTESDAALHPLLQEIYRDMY

CC(=O)N(Cc1ccc(C[C@@H](C(=O)O)n2cccc2)cc1)Cc1nc(-c2ccccc2)oc1C
> 30 µM
CN(C/C=C/c1ccc(C[C@@H](C(=O)O)n2cccc2)cc1)c1ccccc1
> 30 µM
CN(CC#Cc1ccc(CC(C(=O)O)n2cccc2)cc1)c1ccccn1 (racemic)
> 100 µM
CN(CC#Cc1ccc(C[C@@H](C(=O)O)n2cccc2)cc1)c1ccccc1
> 100 µM

Reported EC50 for Cc1oc(-c2ccccc2)nc1CNCc1ccc(C[C@@H](C(=O)O)n2cccc2)cc1 was > 30 µM
